- TEST SYSTEM: RhlR (Pseudomonas aeruginosa)
- Construct: expressed in transfected cells; host or cells: E. coli sdiA variant co-transformed with pJN105R and pSC11 (RhlA::lacZ)
- EXPERIMENT SUMMARY: cell-based
- CONDITION CONTEXT: read-out: Relative RhlR activity Antagonism, Table 2; footnotes not given; 100 μM per Table 3; lower = stronger antagonism
QUANTITY NAME: remaining activity at 100 µM (%)
API: value field is a number in %; no unit string.

Query: Give the measured remaining activity at 100 µM for CCCCCC(=O)/C=C/c1ccc(O)c(OC)c1 [Compound 13b]
Response: 41

Query: Retrieve remaining activity at 100 µM measured for CCCC(O)CC(=O)CCc1ccc(O)c(OC)c1 (centres unmarked) [Compound 2] and print it.
Response: 54

Query: Using the record for CCCCCC(O)CCc1ccc(O)c(OC)c1 (centres unmarked) [Compound 27] , state its measured remaining activity at 100 µM.
Response: 45

Query: Provide remaining activity at 100 µM value for the following molecule: CCCCCC(O)C#Cc1ccc(F)c(F)c1 (racemic) [Compound 35a, 1-(3,4-Difluorophenyl)oct-1-yn-3-ol]
Response: 74

Query: Could you please provide reported remaining activity at 100 µM for CCC[C@H](O)C#Cc1ccc(F)c(F)c1 [Compound 33c, (S)-1-(3,4-Difluorophenyl)hex-1-yn-3-ol] ? Thanks!
Response: 38

Query: State its remaining activity at 100 µM for this molecule: CCCC(O)CC(=O)/C=C/c1ccccc1 (centres unmarked) [Compound 11b, (E)-5-Hydroxy-1-phenyloct-1-en-3-one]
Response: 93

Query: Give the reported remaining activity at 100 µM for this molecule. CCCCC[C@@H](O)C#Cc1ccc(O)c(OC)c1 [Compound 23b]
Response: 27

Query: For the molecule CCCCC(O)CC(=O)CCc1ccc(O)c(OC)c1 (centres unmarked) [Compound 3] , give its measured remaining activity at 100 µM value.
Response: 62

Query: # return recorded remaining activity at 100 µM for input CCCCCC(O)/C=C/c1ccc(O)c(OC)c1 (centres unmarked) [Compound 15b]
Response: 41

Query: Given the molecule CCCC(O)C#Cc1ccc(F)c(F)c1 (racemic) [Compound 33a, 1-(3,4-Difluorophenyl)hex-1-yn-3-ol] , write its reported remaining activity at 100 µM.
Response: 32

Query: // fetch remaining activity at 100 µM given entry CCCC(O)CC(=O)CCc1ccc(N(C)C)cc1 (centres unmarked) [Compound 12j]
Response: 74

Query: Quote remaining activity at 100 µM reported for CCCCCC(=O)CCc1ccc(F)c(F)c1 [Compound 14a, 1-(3,4-Difluorophenyl)octan-3-one] please.
Response: 55

Query: Provide measured remaining activity at 100 µM value, entry: CCCC[C@H](O)C#Cc1ccc(F)c(F)c1 [Compound 34c, (S)-1-(3,4-Difluorophenyl)hept-1-yn-3-ol]
Response: 64

Query: Supply remaining activity at 100 µM value. Item: CCCC(O)CC(=O)/C=C/c1ccccc1C (centres unmarked) [Compound 11i, (E)-5-Hydroxy-1-(o-tolyl)oct-1-en-3-one]
Response: 65

Query: Identify the reported remaining activity at 100 µM for the following entry. CCCC(O)CC(=O)/C=C/c1ccc(O)c(OC)c1 (centres unmarked) [Compound 11a]
Response: 65

Query: Identify remaining activity at 100 µM associated with the molecule CCCCCCCCCC(O)CC(=O)CCc1ccc(O)c(OC)c1 (centres unmarked) [Compound 8]
Response: 36

Query: Complete the entry with remaining activity at 100 µM for CCCCCC(O)/C=C\c1ccc(O)c(OC)c1 (centres unmarked) [Compound 25]
Response: 79

Query: Please report remaining activity at 100 µM for the following molecule: CCC[C@@H](O)C#Cc1ccc(F)c(F)c1 [Compound 33b, (R)-1-(3,4-Difluorophenyl)hex-1-yn-3-ol]
Response: 25

Query: Quote remaining activity at 100 µM reported for CCCC(O)CC(=O)/C=C/c1cccc(O)c1 (centres unmarked) [Compound 11e] please.
Response: 78

Query: Report remaining activity at 100 µM, nothing else, for this molecule: CCCC(O)CC(=O)CCc1ccc(F)c(OC)c1 (centres unmarked) [Compound 12q]
Response: 79

Query: State, in one line, measured remaining activity at 100 µM of CCCC(O)CC(=O)CCc1ccc(C)cc1 (centres unmarked) [Compound 12i, 5-Hydroxy-1-(p-tolyl)octan-3-one]
Response: 76

Query: Provide only the value of recorded remaining activity at 100 µM for CCCCC(=O)C#Cc1ccc(F)c(F)c1 [Compound 31, 1-(3,4-Difluorophenyl)hept-1-yn-3-one]
Response: 16

Query: Look up and state reported remaining activity at 100 µM for CCCC(O)CC(=O)CCc1ccc(F)c(F)c1 (centres unmarked) [Compound 12o]
Response: 49

Query: Give the reported value of remaining activity at 100 µM for this record: CCCC(O)CC(=O)CCc1ccc(O)c(O)c1 (centres unmarked) [Compound 12k]
Response: 47

Query: Please report remaining activity at 100 µM for the following molecule: CCCCCC(=O)C#Cc1ccc(F)c(F)c1 [Compound 32, 1-(3,4-Difluorophenyl)oct-1-yn-3-one]
Response: 17

Query: Read the entry CCCC(O)CC(=O)/C=C/c1ccc(OC)cc1 (centres unmarked) [Compound 11f] and write its reported remaining activity at 100 µM.
Response: 55

Query: Quote remaining activity at 100 µM reported for CCCC(O)CC(=O)CCc1cc(F)cc(OC)c1 (centres unmarked) [Compound 12r] please.
Response: 85

Query: Supply reported remaining activity at 100 µM belonging to this molecule: CCCC(O)CC(=O)/C=C/c1ccc(F)cc1 (centres unmarked) [Compound 11g]
Response: 33

Query: Provide only the value of recorded remaining activity at 100 µM for CCCC(O)CC(=O)/C=C/c1ccc(OC)c(OC)c1 (centres unmarked) [Compound 11l]
Response: 69

Query: Output remaining activity at 100 µM of CCCCCC(=O)/C=C/c1ccc(F)c(F)c1 [Compound 13a, (E)-1-(3,4-Difluorophenyl)oct-1-en-3-one]
Response: 51

Query: Using known records, supply remaining activity at 100 µM for CCCC(=O)NC1CCCC1 [Compound 1d, N-cyclopentylbutyramide, reference compound]
Response: 54

Query: Return remaining activity at 100 µM for the following molecule: CCCCCC(=O)CCc1ccc(O)c(OC)c1 [Compound 14b, 1-(4-Hydroxy-3-methoxyphenyl)octan-3-one]
Response: 49

----------
- TEST SYSTEM: RhlR (Pseudomonas aeruginosa, UniProt P54292)
- Construct: expressed in transfected cells; host or cells: E. coli sdiA variant co-transformed with pJN105R and pSC11 (RhlA::lacZ)
- Sequence (P54292 whole entry): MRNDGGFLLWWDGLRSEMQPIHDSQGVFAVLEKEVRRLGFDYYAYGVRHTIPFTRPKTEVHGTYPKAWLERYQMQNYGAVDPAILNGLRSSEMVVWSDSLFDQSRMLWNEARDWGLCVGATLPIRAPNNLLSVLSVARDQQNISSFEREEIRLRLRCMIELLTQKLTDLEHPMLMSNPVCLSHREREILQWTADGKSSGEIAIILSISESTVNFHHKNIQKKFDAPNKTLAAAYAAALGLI
- EXPERIMENT SUMMARY: cell-based
- CONDITION CONTEXT: Table 2; footnotes not given; 100 μM per Table 3; lower = stronger antagonism
Marks after values point to notes of the source that are not given here.
Give measured Relative RhlR activity Antagonism for each item. Keep answers brief.

Query: For the molecule CCCC(O)CC(=O)/C=C/c1ccc(O)cc1 (stereo not shown) [Compound 11d] , give its measured Relative RhlR activity Antagonism value.
Response: 51** %

Query: Output Relative RhlR activity Antagonism of CCCC(O)CC(=O)/C=C/c1cc(F)cc(OC)c1 (stereo not shown) [Compound 11r]
Response: 74** %

Query: Give Relative RhlR activity Antagonism for the following molecule: CCCC(O)CC(=O)/C=C/c1ccc(F)cc1 (stereo not shown) [Compound 11g]
Response: 33** %

Query: Let me know recorded Relative RhlR activity Antagonism for CCCC(O)CC(=O)/C=C/c1ccc(OC)cc1 (stereo not shown) [Compound 11f] , thanks.
Response: 55** %

Query: # return recorded Relative RhlR activity Antagonism for input CCCC(O)CC(=O)/C=C/c1ccc(C)c(C)c1 (stereo not shown) [Compound 11p]
Response: 72** %

Query: Supply Relative RhlR activity Antagonism value. Item: CCCCC[C@H](O)C#Cc1ccc(O)c(OC)c1 [Compound 23c]
Response: 34** %

Query: Kindly indicate its recorded Relative RhlR activity Antagonism. Item: CCCCCC(=O)C#Cc1ccc(O)c(OC)c1
Response: 29** %

Query: Entry CCCC(O)CC(=O)/C=C/c1ccccc1 (stereo not shown) [Compound 11b, (E)-5-Hydroxy-1-phenyloct-1-en-3-one] needs its Relative RhlR activity Antagonism filled in; supply it.
Response: 93* %

Query: Name the recorded Relative RhlR activity Antagonism of the item CCCCCC(O)/C=C\c1ccc(O)c(OC)c1 (stereo not shown) in your answer.
Response: 79** %

Query: Give a short answer stating reported Relative RhlR activity Antagonism for CCCC(O)CC(=O)/C=C/c1ccc(Cl)cc1 (stereo not shown) [Compound 11h] .
Response: 64** %

----------
I'd be grateful if you could share measured Relative RhIR Activity (%) Agonism 100 for these entries.
- TEST SYSTEM: RhlR (Pseudomonas aeruginosa)
- Construct: expressed in transfected cells; host or cells: E. coli sdiA variant co-transformed with pJN105R and pSC11 (RhlA::lacZ)
- EXPERIMENT SUMMARY: cell-based
- CONDITION CONTEXT: Table 3; 100 (μM)
Marks after values point to notes of the source that are not given here.

Query: Please give measured Relative RhIR Activity (%) Agonism 100 of the following entry: CCCCCC(=O)/C=C/c1ccc(F)c(F)c1 [Compound 13a, (E)-1-(3,4-Difluorophenyl)oct-1-en-3-one]
Response: 4** %

Query: # return recorded Relative RhIR Activity (%) Agonism 100 for input CCCC(O)CC(=O)/C=C/c1ccc(F)c(F)c1 (stereo not shown) [Compound 11o]
Response: 2** %

Query: Fill in Relative RhIR Activity (%) Agonism 100 for record CCC[C@H](O)C#Cc1ccc(F)c(F)c1 [Compound 33c, (S)-1-(3,4-Difluorophenyl)hex-1-yn-3-ol]
Response: 3** %

Query: Find the measured Relative RhIR Activity (%) Agonism 100 of CCCCCC(=O)C#Cc1ccc(F)c(F)c1 and report it.
Response: 3** %
